Taken from PubChem BioAssay (EPA / NIEHS).

# system_name: Cytochrome P450 3A4 (Homo sapiens)
# test_protocol: NVS_ADME_hCYP3A4: NovaScreen (NVS) CYP450-related Enzyme Activity (ADME) Assay for human CYP3A4 (AID 2283110)
# Description: NVS_ADME_hCYP3A4 is a biochemical, single-readout assay that uses extracted gene-proteins from insect cells in a cell-free assay. Measurements were taken 0.33 hour after chemical dosing in a 96-well plate.NVS_ADME_hCYP3A4 is one of one assay component(s) measured or calculated from the NVS_ADME_hCYP3A4 assay. […] This assay endpoint, NVS_ADME_hCYP3A4, was analyzed in the positive analysis fitting direction relative to Acetonitrile as the negative control and baseline of activity. […]
Inconclusive results are not listed. The source made the active and inactive calls. Rule for the calls: active = hit-call score of the fitted dose curve at least 0.9, where 1 is the maximum; inconclusive = response in the unintended direction; inactive = score below 0.9.
Respond only with the outcome that fits, drawn from active, inactive

[[record]]
compound = "CC(C)(c1ccccc1)c1ccc(O)c(C(C)(C)c2ccccc2)c1"
discrete_label = "inactive"

[[record]]
compound = "CC12CC1(C)C(=O)N(c1cc(Cl)cc(Cl)c1)C2=O (stereo not given)"
discrete_label = "inactive"

[[record]]
compound = "Fc1ccc(C2(Cn3cncn3)OC2c2ccccc2Cl)cc1 (stereo not given)"
discrete_label = "active"


Query: Write down the call the test reported for this compound. Item: Clc1ccc(C2(Cn3cncn3)CC(Br)CO2)c(Cl)c1 (stereo not given)
Result: active

Query: Write down the call the test reported for this compound. Item: CC(=O)[O][Hg][c]1ccccc1
Result: active

###

# test_protocol: Tanguay_ZF_120hpf_AXIS_legacy: (Legacy) Oregon State University Tanguay Lab 120 Hour Post-fertilization zebrafish Assay for Body Axis Malformation (AID 2283635)
Results filed as inconclusive are left out. Calls of active or inactive are those of the source. The calls were made as follows: active = hit-call score of the fitted dose curve at least 0.9, where 1 is the maximum; inconclusive = response in the unintended direction; inactive = score below 0.9.
Respond only with the outcome that fits, drawn from class 1 for active, class 0 for inactive

[[record]]
compound = "CCOP(=S)(OCC)SCSP(=S)(OCC)OCC"
discrete_label = "class 0"

[[record]]
compound = "COc1cc(-c2ccc(N)c(OC)c2)ccc1N"
discrete_label = "class 0"

[[record]]
compound = "O=C1C2(Cl)C3(Cl)C4(Cl)C(Cl)(Cl)C5(Cl)C3(Cl)C1(Cl)C5(Cl)C24Cl (stereo not drawn)"
discrete_label = "class 1"

[[record]]
compound = "O=C(O)C(F)(F)C(F)(F)C(F)(F)C(F)(F)C(F)(F)C(F)(F)F"
discrete_label = "class 0"

[[record]]
compound = "C[C@]12CCC(=O)C[C@@H]1CC[C@@H]1[C@@H]2CC[C@]2(C)[C@@H](O)CC[C@@H]12"
discrete_label = "class 0"


Query: Write down the call the test reported for this compound. Item: CCC(=O)C(CC(C)N(C)C)(c1ccccc1)c1ccccc1 (stereo not drawn)
Result: class 1

Query: Write down the call the test reported for this compound. Item: CC(C)(OO)c1ccccc1
Result: class 0

Query: Write down the call the test reported for this compound. Item: O=C(Nc1ccc2[nH]ccc2c1)c1cc2cc(F)ccc2n1Cc1cccc(F)c1
Result: class 0

###

# system_name: human Thyroid Receptor Alpha (TRa), THRA (gene 7067) (UniProt P10827)
# Sequence (P10827 whole entry, looked up): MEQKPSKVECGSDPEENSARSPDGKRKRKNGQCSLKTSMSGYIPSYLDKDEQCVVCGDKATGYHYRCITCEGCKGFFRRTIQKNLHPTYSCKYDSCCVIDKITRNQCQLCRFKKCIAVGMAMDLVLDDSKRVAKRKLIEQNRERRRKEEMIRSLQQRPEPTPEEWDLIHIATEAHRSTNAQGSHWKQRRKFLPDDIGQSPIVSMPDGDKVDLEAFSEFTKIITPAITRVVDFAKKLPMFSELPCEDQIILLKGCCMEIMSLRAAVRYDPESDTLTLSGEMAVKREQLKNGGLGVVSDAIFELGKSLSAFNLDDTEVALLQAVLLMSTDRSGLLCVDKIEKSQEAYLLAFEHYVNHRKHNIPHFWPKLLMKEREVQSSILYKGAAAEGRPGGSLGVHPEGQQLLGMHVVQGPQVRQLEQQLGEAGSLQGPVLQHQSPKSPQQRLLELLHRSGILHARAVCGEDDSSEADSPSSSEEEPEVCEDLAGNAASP
# test_protocol: NVS_NR_hTRa_Antagonist: NovaScreen (NVS) Nuclear Receptor Binding Assay for human Thyroid Receptor Alpha Antagonism (TRa) (AID 2283362);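 note: activity is loss of signal relative to DMSO baseline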
Results filed as inconclusive are left out. The source made the active and inactive calls. How the source made its calls: active means hit-call score of the fitted dose curve at least 0.9, where 1 is the maximum; inconclusive means response in the unintended direction; inactive means score below 0.9.
Respond only with the outcome that fits, drawn from active, inactive

[[record]]
compound = "O=C1C2(Cl)C3(Cl)C4(Cl)C(Cl)(Cl)C5(Cl)C3(Cl)C1(Cl)C5(Cl)C24Cl (stereo unspecified)"
discrete_label = "inactive"


Query: Write down the call the test reported for this compound. Item: Clc1ccc(COC(Cn2ccnc2)c2ccc(Cl)cc2Cl)cc1 (stereo unspecified)
Result: inactive

Query: Write down the call the test reported for this compound. Item: Oc1cccc2cccnc12
Result: active

Query: Write down the call the test reported for this compound. Item: Clc1ccc(C2(Cn3cncn3)CC(Br)CO2)c(Cl)c1 (stereo unspecified)
Result: inactive

Query: Write down the call the test reported for this compound. Item: CC(C)(c1ccccc1)c1ccc(O)c(C(C)(C)c2ccccc2)c1
Result: inactive

Query: Write down the call the test reported for this compound. Item: NNC(=S)NN
Result: active
